# Tested target: GST-LXRβ ligand-binding domain (Homo sapiens, UniProt P55055)
# Construct: amino acids 156-461; NP009052
# Sequence (P55055 156-460 limits assumed): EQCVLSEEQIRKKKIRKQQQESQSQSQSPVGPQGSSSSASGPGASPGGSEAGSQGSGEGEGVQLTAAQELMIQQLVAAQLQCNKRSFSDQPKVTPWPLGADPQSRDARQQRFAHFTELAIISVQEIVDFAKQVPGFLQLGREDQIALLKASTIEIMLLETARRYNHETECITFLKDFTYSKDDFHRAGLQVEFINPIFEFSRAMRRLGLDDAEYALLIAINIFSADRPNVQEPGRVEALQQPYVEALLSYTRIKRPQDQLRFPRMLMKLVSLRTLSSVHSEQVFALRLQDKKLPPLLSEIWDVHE
# Measurement description: TR-FRETβ activity assay (NCoA3 coactivator peptide recruitment)
# Conditions used: 1 μM 24(S)-25-epoxycholesterol prestimulation
pEC50: −log10 of the molar value.
Experimental readout: pEC50

Query the reported pEC50 for GST-LXRβ ligand-binding domain (Homo sapiens, UniProt P55055); item: N#Cc1sccc1-c1c(-c2ccccc2)n(S(=O)(=O)c2ccc(OCC(=O)O)cc2)c2ccccc12 5.00 to 6.00

Query the reported pEC50 for GST-LXRβ ligand-binding domain (Homo sapiens, UniProt P55055); item: N#Cc1sccc1-c1c(-c2cccs2)n(S(=O)(=O)c2ccc(Cl)cc2)c2ccc(OCCCC(=O)O)cc12 5.00 to 6.00

Query the reported pEC50 for GST-LXRβ ligand-binding domain (Homo sapiens, UniProt P55055); item: Cc1ccc(S(=O)(=O)n2c(-c3cccc(N4CCC(C)(C(=O)O)CC4)c3)c(-c3ccsc3C#N)c3cc(F)ccc32)cc1 6.00 to 7.00

Query the reported pEC50 for GST-LXRβ ligand-binding domain (Homo sapiens, UniProt P55055); item: Cc1ccc(S(=O)(=O)n2c(-c3cccc(C45CCC(C(=O)O)(CC4)CC5)c3)c(-c3ccsc3C#N)c3cc(F)ccc32)cc1 6.00 to 7.00

Query the reported pEC50 for GST-LXRβ ligand-binding domain (Homo sapiens, UniProt P55055); item: N#Cc1sccc1-c1c(-c2cccs2)n(S(=O)(=O)c2ccc(Cl)cc2)c2ccc(OCC(=O)O)cc12 < 5.00

***
Query the reported pEC50 for GST-LXRβ ligand-binding domain (Homo sapiens, UniProt P55055); item: N#Cc1sccc1-c1c(-c2ccccc2)n(S(=O)(=O)c2ccc(-c3cccc(C(=O)O)c3)cc2)c2ccccc12 5.00 to 6.00

Query the reported pEC50 for GST-LXRβ ligand-binding domain (Homo sapiens, UniProt P55055); item: N#Cc1ccccc1-c1c(-c2cccc(-c3ccc(C(=O)O)c(O)c3Cl)c2)n(S(=O)(=O)c2ccc(C(F)F)cc2)c2ccc(F)cc12 > 7.00

###

Measured pEC50 values are reported for all entries that follow.
# Tested target: LXRβ (Homo sapiens)
# Measurement description: LXR Gal4 reporter transient transfection assay (mammalian two-hybrid, HEK293), LXRβ
# Format: cell-based
# Design: LXRβ (amino acids 156-461); expressed in transfected cells; host or cells: HEK293
# Conditions used: full length (FL) LXRβ, HEK293; read-out: FL-M2H Gal4β
# Method: LXRα and LXRβ activity status was determined via detection of interaction with coactivator and corepressor proteins in mammalian two-hybrid experiments (M2H). […] As cofactors, domains of either the steroid receptor coactivator 1 (SRC1; amino acids 552-887; SEQ ID NO:5) or of the corepressor NCoR (amino acids 1906-2312; NP006302; SEQ ID NO:6) were expressed as fusions to the DNA binding domain of the yeast transcription factor GAL4 (from pCMV-BD; Stratagene). […]
# Sequence (P55055 whole entry, the tested form may be a part): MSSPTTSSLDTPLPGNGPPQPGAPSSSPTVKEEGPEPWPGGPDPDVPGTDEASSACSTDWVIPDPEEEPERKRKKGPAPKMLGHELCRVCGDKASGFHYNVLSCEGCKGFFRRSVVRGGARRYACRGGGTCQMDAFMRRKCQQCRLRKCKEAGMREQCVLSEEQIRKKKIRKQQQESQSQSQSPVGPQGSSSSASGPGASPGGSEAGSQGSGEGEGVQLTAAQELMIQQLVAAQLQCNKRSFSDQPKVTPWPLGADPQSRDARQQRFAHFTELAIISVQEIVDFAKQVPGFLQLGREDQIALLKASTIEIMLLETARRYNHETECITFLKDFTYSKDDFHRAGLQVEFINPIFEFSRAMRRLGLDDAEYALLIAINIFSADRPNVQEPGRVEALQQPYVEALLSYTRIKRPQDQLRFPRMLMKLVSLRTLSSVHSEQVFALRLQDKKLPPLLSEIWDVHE
pEC50: −log10 of the molar value.

Worked examples follow.
So what does the record say about pEC50 for Cc1ccc(S(=O)(=O)n2c(-c3cccc(-c4cncc(S(=O)(=O)CC(=O)O)c4)c3)c(-c3ccsc3C#N)c3ccccc32)cc1 [Compound 5] ? 5.00 to 6.00

So what does the record say about pEC50 for CS(=O)(=O)NC(=O)c1ccc(-c2cccc(-c3c(-c4c(C#N)cccc4C#N)c4cc(F)ccc4n3S(=O)(=O)c3ccc(C(F)F)cc3)c2)c(Cl)c1 [32/5] ? > 7.00

So what does the record say about pEC50 for Cc1ccc(S(=O)(=O)n2c(-c3cccc(-c4cc(F)c(C(=O)O)cc4Cl)c3)c(-c3ccsc3C#N)c3cc(F)ccc32)cc1 [12/2] ? > 7.00

So what does the record say about pEC50 for O=C(O)c1ccc(-c2cccc(-c3c(-c4cccc5c4OCO5)c4cc(F)ccc4n3S(=O)(=O)c3ccc(C(F)F)cc3)c2)c(Cl)c1 [11/44] ? > 7.00

Consider the additional molecule presented here.
So what does the record say about pEC50 for O=C(NCCS(=O)(=O)O)C1CC1c1cccc(-c2c(-c3c(Cl)cccc3Cl)c3cc(F)ccc3n2S(=O)(=O)c2ccc(C(F)F)cc2)c1 (centres unmarked) [10/4] ? > 7.00

###

# Measurement description: Short term HFD mouse model: plasma and liver exposure
# Format: in vivo
# Conditions used: HFD mice, three oral doses of 20 mg/kg over two days, 4 h after final dose
Experimental readout: plasma exposure 4 h

So what does the record say about plasma exposure 4 h for N#Cc1cccc(C#N)c1-c1c(-c2cccc(-c3ccc(C(=O)O)cc3Cl)c2)n(S(=O)(=O)c2ccc(C(F)F)cc2)c2ccc(F)cc12 [11/12] ? D (<100 nM)

So what does the record say about plasma exposure 4 h for N#Cc1sccc1-c1c(-c2cccc(-c3ccc(C(=O)O)cc3Cl)c2)n(S(=O)(=O)c2ccc(C(F)F)cc2)c2ccc(F)cc12 [11/17] ? C (100 nM to <300 nM)

So what does the record say about plasma exposure 4 h for N#Cc1nccnc1-c1c(-c2cccc(-c3cc(F)c(C(=O)O)cc3Cl)c2)n(S(=O)(=O)c2ccc(C(F)F)cc2)c2ccc(F)cc12 [11/11] ? D (<100 nM)

So what does the record say about plasma exposure 4 h for N#Cc1ccccc1-c1c(-c2cccc(-c3ccc(C(=O)O)cc3Cl)c2)n(S(=O)(=O)c2ccc(C(F)F)cc2)c2ccc(F)cc12 [11/33] ? C (100 nM to <300 nM)

So what does the record say about plasma exposure 4 h for O=C(O)c1ccc(-c2cccc(-c3c(-c4ccccc4C4COC4)c4cc(F)ccc4n3S(=O)(=O)c3ccc(C(F)F)cc3)c2)c(Cl)c1 [3/59] ? C (100 nM to <300 nM)

***
So what does the record say about plasma exposure 4 h for N#Cc1ccccc1-c1c(-c2cccc(-c3ccc(C(=O)O)cc3Cl)c2)n(S(=O)(=O)c2ccc(C(F)F)cc2)c2cnccc12 [11/49] ? D (<100 nM)

So what does the record say about plasma exposure 4 h for COc1c(C(=O)O)ccc(-c2cccc(-c3c(-c4ccccc4C#N)c4cc(F)ccc4n3S(=O)(=O)c3ccc(C(F)F)cc3)c2)c1Cl [11/27] ? D (<100 nM)

###

# Tested target: LXRβ (Homo sapiens)
# Construct: LXRβ (amino acids 156-461); expressed in transfected cells; host or cells: HEK293
# Measurement description: LXR Gal4 reporter transient transfection assay (mammalian two-hybrid, HEK293), LXRβ
# Assay type: cell-based
# Conditions used: ligand-binding domain (LBD) of LXRβ, HEK293; read-out: LBD-M2H Gal4β
# Sequence (P55055 156-460): as the sequence (P55055 156-460 limits assumed) above
pEC50: −log10 of the molar value.
Measured pEC50 values are reported for all entries that follow.

So what does the record say about pEC50 for N#Cc1sccc1-c1c(-c2cccs2)n(S(=O)(=O)c2cccc3ccccc23)c2ccccc12 [1/27] ? > 7.00

***
So what does the record say about pEC50 for N#Cc1sccc1-c1c(-c2cccs2)n(S(=O)(=O)c2ccc(Cl)cc2)c2ccc(C(=O)O)cc12 [Compound 23] ? 6.00 to 7.00

So what does the record say about pEC50 for N#Cc1sccc1-c1c(-c2ccc(C3CC3C(=O)O)s2)n(S(=O)(=O)c2ccc(Cl)cc2)c2ccccc12 (stereo not drawn) [30/8] ? 6.00 to 7.00

###

Measured EC50 values are reported for all entries that follow.
# Tested target: LXRβ (Homo sapiens)
# Construct: LXRβ (amino acids 156-461); expressed in transfected cells; host or cells: HEK293
# Measurement description: LXR Gal4 reporter transient transfection assay (mammalian two-hybrid, HEK293), LXRβ
# Assay type: cell-based
# Conditions used: ligand-binding domain (LBD) of LXRβ, HEK293; read-out: LBD-M2H Gal4β
# Procedure: LXRα and LXRβ activity status was determined via detection of interaction with coactivator and corepressor proteins in mammalian two-hybrid experiments (M2H). […] As cofactors, domains of either the steroid receptor coactivator 1 (SRC1; amino acids 552-887; SEQ ID NO:5) or of the corepressor NCoR (amino acids 1906-2312; NP006302; SEQ ID NO:6) were expressed as fusions to the DNA binding domain of the yeast transcription factor GAL4 (from pCMV-BD; Stratagene). […]

Worked examples follow.
So what does the record say about EC50 for N#Cc1sccc1-c1c(-c2cncs2)n(S(=O)(=O)c2ccc(Cl)cc2)c2ccccc12 [Compound 25] ? < 100 nM

So what does the record say about EC50 for COc1ccc(S(=O)(=O)n2c(-c3ccccc3)c(C3=C(C#N)c4ccccc4CC3)c3ccccc32)cc1 [20/19] ? 100 to 1000 nM

Consider the additional molecule presented here.
So what does the record say about EC50 for N#Cc1sccc1-c1c(-c2cccc(N3CC(C(=O)O)C3)c2)n(S(=O)(=O)c2ccc(Cl)cc2)c2ccccc12 [30/7] ? < 100 nM
